Molecular target: GST-Aq-NF-kB (Amphimedon queenslandica, UniProt A9Y5G7 2-389)
Sequence: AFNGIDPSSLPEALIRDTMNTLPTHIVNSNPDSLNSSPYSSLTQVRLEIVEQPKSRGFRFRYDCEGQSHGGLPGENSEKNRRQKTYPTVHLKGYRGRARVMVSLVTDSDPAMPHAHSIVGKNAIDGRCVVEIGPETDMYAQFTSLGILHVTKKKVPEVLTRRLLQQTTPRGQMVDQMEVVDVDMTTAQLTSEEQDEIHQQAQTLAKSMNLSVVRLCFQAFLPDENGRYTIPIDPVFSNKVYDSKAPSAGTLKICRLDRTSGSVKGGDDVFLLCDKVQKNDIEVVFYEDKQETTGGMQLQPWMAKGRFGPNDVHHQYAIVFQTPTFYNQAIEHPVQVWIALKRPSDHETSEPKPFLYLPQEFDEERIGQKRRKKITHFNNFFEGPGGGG
Assay: protein-binding microarray (PBM); PBM: ~300 nM protein, 6 mM HEPES pH 7.8, 80 mM KCl, 0.5 mM EDTA, 0.5 mM EGTA, 6% glycerol, 35 ng/ul poly-dIdC, 1% milk, 1 h, room temperature; high values mean tight binding
Settings: dsDNA, one strand shown
quantity measured: binding signal (z-score)
Just the number in z-score, nothing appended.

## Input I'm curious: which binding signal was measured for "CCGATTAACATCATTTGGGAAAATGATGTTAATCGGGTCTTGATTCGCTTGACGCTGCTG" tested on GST-Aq-NF-kB (Amphimedon queenslandica, UniProt A9Y5G7 2-389)?
## Output 1.67

## Input Please answer likewise for "CCGATTAACATCAGGGGGGATAATGATGTTAATCGGGTCTTGATTCGCTTGACGCTGCTG"
## Output 4.72

## Input Please answer likewise for "CCGATTAACATCAAATAGTCCCCTGATGTTAATCGGGTCTTGATTCGCTTGACGCTGCTG"
## Output 6.32

## Input Please answer likewise for "CCGATTAACATCAGGGAAAGAAATGATGTTAATCGGGTCTTGATTCGCTTGACGCTGCTG"
## Output 3.72

## Input Please answer likewise for "CCGATTAACATCAGGGATATCCATGATGTTAATCGGGTCTTGATTCGCTTGACGCTGCTG"
## Output 2.44

## Input Please answer likewise for "CCGATTAACATCAAGGGATTTTCTGATGTTAATCGGGTCTTGATTCGCTTGACGCTGCTG"
## Output 6.65

## Input Please answer likewise for "CCGATTAACATCAAAGGATTTCCTGATGTTAATCGGGTCTTGATTCGCTTGACGCTGCTG"
## Output 1.01

## Input Please answer likewise for "CCGATTAACATCAGGCCTTTCCCTGATGTTAATCGGGTCTTGATTCGCTTGACGCTGCTG"
## Output 6.74

## Input Please answer likewise for "CCGATTAACATCACATTCTCCCCTGATGTTAATCGGGTCTTGATTCGCTTGACGCTGCTG"
## Output 3.34

====

Target: GST-Dm-Relish (Drosophila melanogaster, UniProt Q94527 99-473)
Sequence: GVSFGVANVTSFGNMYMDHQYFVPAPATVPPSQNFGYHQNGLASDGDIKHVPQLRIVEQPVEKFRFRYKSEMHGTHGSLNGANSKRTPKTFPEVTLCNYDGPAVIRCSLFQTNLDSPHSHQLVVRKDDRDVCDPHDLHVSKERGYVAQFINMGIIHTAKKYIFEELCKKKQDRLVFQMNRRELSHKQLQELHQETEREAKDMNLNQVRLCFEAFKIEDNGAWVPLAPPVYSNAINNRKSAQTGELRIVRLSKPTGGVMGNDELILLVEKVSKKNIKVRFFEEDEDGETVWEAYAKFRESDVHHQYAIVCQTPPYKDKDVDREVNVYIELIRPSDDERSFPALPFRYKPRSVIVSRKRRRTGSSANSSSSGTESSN
Assay: protein-binding microarray (PBM); PBM: ~300 nM protein, 6 mM HEPES pH 7.8, 80 mM KCl, 0.5 mM EDTA, 0.5 mM EGTA, 6% glycerol, 35 ng/ul poly-dIdC, 1% milk, 1 h, room temperature; Ap Aiptasia and Nv Nematostella (sea anemones) / Co Capsaspora / Aq Amphimedon (sponge) / Dm Drosophila / Hu human; RHD is the Rel homology domain; high values mean tight binding
Conditions: dsDNA, one strand shown
Classify as follows. Reported binding signal greater than or equal to 5 z-score: rule met. Reported binding signal below: rule not met.

## Input Assess whether reported binding signal for "CCGATTAACATCAATGCACCCCCTGATGTTAATCGGGTCTTGATTCGCTTGACGCTGCTG" sits at 5 z-score or higher.
## Output rule not met

## Input Please answer likewise for "CCGATTAACATCAGGGGGTTAACTGATGTTAATCGGGTCTTGATTCGCTTGACGCTGCTG"
## Output rule met

## Input Please answer likewise for "CCGATTAACATCAGGGGGGGTAATGATGTTAATCGGGTCTTGATTCGCTTGACGCTGCTG"
## Output rule not met

## Input Please answer likewise for "CCGATTAACATCAAAATTCCCATTGATGTTAATCGGGTCTTGATTCGCTTGACGCTGCTG"
## Output rule met

## Input Please answer likewise for "CCGATTAACATCAATTATCCCCCTGATGTTAATCGGGTCTTGATTCGCTTGACGCTGCTG"
## Output rule not met
